# System: 3T3-L1
# test-summary: Induction of adiponectin protein secretion in mouse 3T3L1 cells at 3 uM on day 8 by ELISA relative to control
# Format: functional
Activity listing for selected molecules.
Report only the number, with the unit % understood.

Reference set, count: 3
molecule	assay-system	metric	reported-value
COc1ccc(-c2oc3cc(OC)cc(O)c3c(=O)c2OC)cc1	3T3-L1	Activity	125.3
COc1cc(OC)c2c(=O)c(OC)c(-c3ccc(OC)c(OC)c3)oc2c1	3T3-L1	Activity	156.8
Cc1c(C)c2c(c(C)c1O)CCC(C)(COc1ccc(CC3SC(=O)NC3=O)cc1)O2 (centres undefined) [TROGLITAZONE]	3T3-L1	Activity	166.4

For the next question, use this molecule.
Query string: Could you tell me which Activity is on file for COc1ccc(-c2oc3cc(OC)cc(OC)c3c(=O)c2OC)cc1 [TETRAMETHYLKAEMPFEROL] ?
Result string: 149.5

###

# Tested on: 3T3-L1
# test-summary: Cytotoxicity in mouse 3T3L1 cells assessed as reduction in triglyceride accumulation at 30 uM
# Assay type: cell-based
# condition-details: 3t3-l1, 30 µM
metric: Activity

compound	Activity
O=c1cc(-c2ccc(O)c(O)c2)oc2cc(O)cc(O)c12 [LUTEOLIN]	Toxic
O=C(/C=C/c1ccc(O)c(O)c1)c1ccc(O)cc1O [BUTEIN]	Toxic
O=c1c(O)c(-c2ccccc2)oc2ccccc12 [FLAVONOL]	Toxic
O=c1cc(-c2ccccc2)oc2cc(O)c(O)c(O)c12 [BAICALEIN]	Toxic
COc1cc(OC)c2c(=O)cc(-c3ccccc3)oc2c1 [CHRYSIN DIMETHYL ETHER]	Toxic

Query string: Could you tell me which Activity is on file for COc1ccc(-c2cc(=O)c3c(OC)cc(OC)cc3o2)cc1 [TRIMETHYLAPIGENIN] ?
Result string: Toxic

###

# Tested on: 3T3-L1
# test-summary: Induction of insulin-stimulated 2-deoxy-D- 2,6-[3H]-glucose uptake in differentiated mouse 3T3L1 cells at 30 uM compound treated for 20 mins with insulin by liquid scintillation counting (reference value: 100.0 %)
# Type: functional
metric: Activity (%)
Report only the number, with the unit % understood.

Reference set, count: 3
O=c1c(O)c(-c2ccc(O)cc2)oc2cc(O)cc(O)c12 12.7
COc1ccc(-c2oc3cc(OC)cc(OC)c3c(=O)c2OC)cc1 46
COc1ccc(-c2oc3cc(OC)cc(O)c3c(=O)c2OC)cc1 60.1

For the next question, use this compound.
Query string: Could you tell me which Activity is on file for COc1cc(OC)c2c(=O)c(OC)c(-c3ccc(OC)c(OC)c3)oc2c1 ?
Result string: 35.9
